These measurements were taken from PubChem BioAssay (NCI).

# Tested on: SNB-19 CNS
# assay.method.text: NCI tumour cell line growth inhibition, 48 h
endpoint.label: TGI

The cases that follow already have their TGI on record.
>  <molecule>
CC(=O)NNc1nc(C)c(C(=O)NNC(=O)C(=O)Nc2c(C)cccc2C(C)(C)C)s1

>  <recorded.measurement>
> 100 µM

$$$$
>  <molecule>
CO[C@H]1CC(c2ccc[nH]2)=N[C@]12O[C@@H](C)C[C@@H]1CCCCCCCc3ccc([nH]3)[C@H]12

>  <recorded.measurement>
> 33.3 µM

$$$$
>  <molecule>
Cc1cc2c(cc1Cl)SC(NNc1ccc([N+](=O)[O-])cc1)=NS2(=O)=O

>  <recorded.measurement>
> 10 µM

$$$$
>  <molecule>
O=C(/C=C1/Nc2ccc([N+](=O)[O-])cc2NC1O)c1cccc([N+](=O)[O-])c1 (stereo not given)

>  <recorded.measurement>
> 100 µM

$$$$

Now take the following molecule into account.
API: value(readout=TGI, system=SNB-19 CNS) for record CCCCCCC(/C=N/O)C(C)(O)CCC (stereo not given) > 100 µM

----------
This listing pairs compounds with measured TGI.
# Tested on: NCI-H226 lung
# assay.method.text: NCI tumour cell line growth inhibition, 48 h

// known answers, use as guide
>  <compound>
COc1ccc(N2C(=O)CC(c3c[nH]c4ncccc34)C2=O)cc1 (centres undefined)

>  <tested.on>
NCI-H226 lung

>  <recorded.measurement>
> 100 µM

$$$$
>  <compound>
Nc1n[nH]c(CCc2nc(N)n[nH]2)n1

>  <tested.on>
NCI-H226 lung

>  <recorded.measurement>
> 100 µM

$$$$
>  <compound>
CCN(CC)CCO/N=C1/C=C2CCC3C(CC[C@@]4(C)C3CC[C@]4(C)O)[C@@]2(C)CC1 (some centres undefined)

>  <tested.on>
NCI-H226 lung

>  <recorded.measurement>
10.2 µM

$$$$

Now for the compound whose TGI we want.
# TGI lookup, item C[C@H]1C(=O)CC[C@]2(C)CCC(C(C)(C)O)CC12O (some centres undefined) > 100 µM

----------
# Tested on: EKVX NSCLC
# assay.method.text: NCI tumour cell line growth inhibition, 48 h
endpoint.label: TGI

For orientation, consider the following solved cases.
>  <molecule>
C[C@]12CC[C@H](O)CC1=CC[C@@H]1C2CC[C@]2(C)Nc3c(cnn3-c3ccc(F)cc3)CC12 (some centres not stated)

>  <tested.on>
EKVX NSCLC

>  <TGI>
> 100 µM

$$$$
>  <molecule>
CCN(CC)CCO/N=C1/C=C2CCC3C(CC[C@@]4(C)C3CC[C@]4(C)O)[C@@]2(C)CC1 (some centres not stated)

>  <tested.on>
EKVX NSCLC

>  <TGI>
42.9 µM

$$$$
>  <molecule>
CCCCNC(=S)/N=C/c1c(O)c2ccccc2[nH]c1=O

>  <tested.on>
EKVX NSCLC

>  <TGI>
> 10 µM

$$$$

Entry N#CC(C#N)=Cn1c(=S)[nH]c2ccccc21 : reported TGI = ? > 100 µM

----------
# Tested on: RPMI-8226 leukemia
# assay.method.text: NCI tumour cell line growth inhibition, 48 h
TGI reference

Consider the worked cases shown below.
>  <compound>
COc1ccc(OC)c(Nc2nc(-c3c(C)nc4sccn34)cs2)c1

>  <endpoint.label>
TGI

>  <recorded.measurement>
> 100 µM

$$$$
>  <compound>
N#Cc1nc(COCCOCc2ccc(F)cc2)oc1N

>  <endpoint.label>
TGI

>  <recorded.measurement>
> 100 µM

$$$$
>  <compound>
Cc1cccc2c(=O)c3cccc([C@@H](C)C(=O)O)c3oc12

>  <endpoint.label>
TGI

>  <recorded.measurement>
> 100 µM

$$$$
>  <compound>
COc1cc(C2C(Cl)C(=O)N2NC(=O)c2ccc(NC(C)=O)cc2OC)ccc1O (stereo unspecified)

>  <endpoint.label>
TGI

>  <recorded.measurement>
13.4 µM

$$$$
>  <compound>
C=C(Cl)Cc1c(O)c2c(c(O)c1CC(=C)Cl)C(=O)c1ccccc1C2=O

>  <endpoint.label>
TGI

>  <recorded.measurement>
> 100 µM

$$$$

Note: attention shifts to another entry.
Give its TGI value. Item: O=[N+]([O-])c1ccc(Cl)cc1C1SCc2nc3ccccc3n21 (stereo unspecified) > 100 µM
